# System: Toxoplasma gondii
# assayProcedure: T. gondii plaque assay
# Format: cell-based
# conditionsUsed: Toxoplasma gondii, 168 h; confluent fibroblast monolayers, wild-type tachyzoites, seven days; read-out: EC50 (plaque area relative to control)
recordedEndpoint: pEC50
Remember the convention: pEC50 equals -log10 of concentration in molar.

# pEC50 (molecule: `COc1ccc(C=CC(=O)NCc2cc(OC)c(OC)c(OC)c2)cc1OC` ) is 5.19
